Reference source for all entries: patent US11466054B2

Test system: CL1-5 cells
measurement_notes: Transwell migration assay, CL1-5 cells pretreated with peptide
Type: cell-based, human
assay_setup: CL1-5, 100 μmolar pretreatment, 12 hours, FIG. 10; control approximately 105
Where no end group is shown, it is not given here. The star is where a group is joined. Myristoyl = CCCCCCCCCCCCCC(=O)*

>  <substance>
N-acetyl-GAQFSKTAAK (Ac-GAQFSKTAAK; listed as Homo sapiens) [BIO-11006]

>  <cell number>
approximately 50

$$$$
>  <substance>
N-myristoyl-GAQFSKTAAK (Myristoyl-GAQFSKTAAK; listed as Homo sapiens) [BIO-11000]

>  <cell number>
approximately 50

$$$$
